Measured melting point of individual entries

INSERT INTO measurements (molecule, metric_name, data_value) VALUES
  ('NC(=O)C1=C(NCc2ccccc2)CCCC1', 'melting point', '73 to 74 °C'),
  ('CC(C)c1cc(C(=O)Nc2ccc(C(=O)O)cn2)sc1C(C)C', 'melting point', '> 300 °C'),
  ('CC(C)=NOCc1nc2c(N)nc(C)c(C)c2n1CCCCNS(C)(=O)=O', 'melting point', '157 to 159 °C'),
  ('O=C(OCCc1ccccn1)Oc1ccc([N+](=O)[O-])cc1', 'melting point', '125 to 127 °C'),
  ('COc1ccc(-n2c(S)nc3cc(OC)cc(OC)c3c2=O)cc1', 'melting point', '322 to 326 °C');

Query :: Read off the recorded melting point for `O=C(O)CCc1cnoc1-c1cc(Cl)c(Cl)s1`
Result :: 142 to 143 °C

Query :: Read off the recorded melting point for `CN(C)CCNc1ccc(NCCCCN)c2c1C(=O)c1ccccc1C2=O`
Result :: 88 to 90 °C

Query :: Read off the recorded melting point for CNC(=O)C(C(=O)NC(Cc1ccccc1)C(O)CNCC(O)C(Cc1ccccc1)NC(=O)OC(C)(C)C)C(C)(C)C (stereo unspecified)
Result :: 117 to 120 °C

Query :: Read off the recorded melting point for `CCCCCCCCCCN(OCc1ccccc1)C(=O)Nc1c(C(C)C)cccc1C(C)C`
Result :: 91 to 93 °C

Query :: Read off the recorded melting point for `O=C1CCCc2c1n(CCBr)c1ccc(Cl)cc21`
Result :: 121 °C

Query :: Read off the recorded melting point for CC(C)C(C(=O)O)c1ccc(OC(F)F)cc1 (stereo unspecified)
Result :: 63 °C

* * *

METRIC_NAME: melting point

INSERT INTO assay_data (chem_smiles, metric_name, data_value) VALUES
  ('COC(=O)c1n[nH]c2cc(C(F)(F)F)ccc12', 'melting point', '240 to 242 °C'),
  ('CCCc1nc2c(N)nc(C)c(C)c2n1CCCC(N)=O', 'melting point', '226 to 228 °C');

Query :: Read off the recorded melting point for `Cc1nc(N)c(Br)c(NNCc2cncc(Br)c2)n1`
Result :: 221 to 222 °C

* * *

Measured melting point of individual entries

// worked examples, melting point included
INSERT INTO measurements (molecule, data_value) VALUES
  ('CC(C)c1ccc(-n2c(CC(=O)O)c(C(=O)O)c3cc(Oc4ccc(C(F)(F)F)cc4)ccc32)cc1', '250 to 252 °C'),
  ('COC(=S)c1sc(C)c(Cl)c1OC', '82 to 83 °C'),
  ('OC1(CNCc2ccccn2)CCN(CCCc2c[nH]c3ccc(-n4cnnc4)cc23)CC1', '> 55 °C'),
  ('CC(=O)NC[C@H]1CN(c2cc(F)c(N3CCS(=O)(=O)CC3)c(F)c2)C(=O)O1', '187 to 190 °C'),
  ('CCC(O)(c1ccc(OCCN2CCOCC2)cc1)c1cccc(C(F)(F)F)c1 (stereo not given)', '73 to 74 °C');

Query :: Read off the recorded melting point for `CCOC(=O)c1cc(=O)c(O)c(-c2ccc(O)cc2)o1`
Result :: 228 to 232 °C

Query :: Read off the recorded melting point for `Cc1ccsc1C(=O)NCCCSc1ccncc1`
Result :: 104 to 105 °C

Query :: Read off the recorded melting point for `O=c1cc(Nc2cccc(-c3ccncc3)c2)c1=O`
Result :: 252 to 256 °C

Query :: Read off the recorded melting point for `FC(F)(F)c1ccc2ncc(Br)cc2c1`
Result :: 79 °C

Query :: Read off the recorded melting point for CCCC(CC1CCc2c(cccc2OCC(=O)OC)C1)=NO (stereo not given)
Result :: 95.9 to 97 °C
